Each recorded value in this set is attributed to the supplement of paper PMC12632987.

Target: MAP1LC3A, Q9H492
Assay: median log2 fold change of GCK-ALFA target abundance (FLAG IP / Myc IP barcode read proportion) (log2 ratio); each designed protein is fused to an ALFA-tag nanobody in HEK293 cells to bring the named protein to FLAG-tagged glucokinase (GCK); Myc marks an untargeted standard; higher = target protein stabilised (more abundant)
Settings: target protein: 3xFLAG-MCP-GCK-ALFA reporter; HEK293 landing pad (RPLP)
The full ranking holds about 2,300 sequences; the median of “median log2 fold change of GCK-ALFA target abundance (FLAG IP / Myc IP barcode read proportion)” is about 0.095, and the lowest 2% start at about -0.47. The sample holds the lowest values, similar sequences and a random draw of the others, so the mix is not that of the screen.
median log2 fold change values for the binders below.

LC3A_17_590 (protein) SEEIREELEELLKELKELIKEAKKLGIPEAKEVEKLLKEAEKALKEGKLREAAELLREAADLLADALEEIEEELGSKASVLEMEANGLALRAEGILLKLE	0.0276
LC3A_17_592 (protein) SEEIKKEIEELLKELKKLIKKMKELGIPEAKEIEKLLKEAEKALKEGDLKKAAELLAKAADLAADALEEKEEELGSEASVLEMEANGLELRAIGILLKLD	-0.636
LC3A_3_1762 (protein) MEAFIEAAAKELKEAGASEELIEKASRALRLLLERGLEETAKEFVKVLLELLKKSEELALDLAEDVLTLLETSTLSPEELAKAVRSEMNAALSEAEIEEL	0.226

Lab book: median log2 fold change of LC3A_17_549 (protein) MEEIKKELEKLLKELEALVKELEKYDPEAAKKLKKKLKEAKKLLEEGKLKEAAETLAEAARELANKLDELEPKHGNEASVLAMEASGLELEAIGLLLKLE noted as 0.207
